# GI50 at 72 h per entry
Assay: Cytotoxicity against human DU145 cells after 72 hrs by MTT assay
Type: cell-based, DU-145

Known results for molecules:
molecule: CCCCCCCCCCNC(=O)C1C(C(=O)O)[C@@H]2CC[C@H]1O2 (stereo partly drawn)
GI50 at 72 h: 10 µM

molecule: O=C(O)C1C(C(=O)NCCc2ccccc2)[C@H]2CC[C@@H]1O2 (stereo partly drawn)
GI50 at 72 h: 10 µM

Field GI50 at 72 h (entry CN(C)CCOc1ccc(N2C(=O)[C@@H]3[C@H](C2=O)[C@H]2CC[C@@H]3O2)cc1 ) reads > 75 µM

---

Test: Cytotoxicity against human DU145 cells after 72 hrs by MTT assay
Assay type: cell-based, DU-145
Reported GI50 at 72 h values for the following compounds.

Entry CCc1ccccc1NC(=O)C1C(C(=O)O)[C@@H]2CC[C@H]1O2 (stereo partly specified) — recorded GI50 at 72 h = 10 µM

GI50 at 72 h measured on O=C(O)CCCCCCCNC(=O)C1C(C(=O)O)[C@@H]2CC[C@H]1O2 (stereo partly specified) = 10 µM

The recorded GI50 at 72 h for entry CCCCCCCCNC(=O)C1C(C(=O)O)[C@@H]2CC[C@H]1O2 (stereo partly specified) equals 10 µM

GI50 at 72 h measured on Cc1cc(C)c(NC(=O)C2C(C(=O)O)[C@@H]3CC[C@H]2O3)c(C)c1 (stereo partly specified) = 10 µM

GI50 at 72 h reported for this compound CCOC(=O)c1cn[nH]c1NC(=O)C1C(C(=O)O)[C@@H]2CC[C@H]1O2 (stereo partly specified) : 10 µM
